Test system: OVCAR-8
assay_comment: NCI tumour cell line growth inhibition, 48 h
Calls of active or inactive are those of the source. Rule as the data show it: active = GI50 up to about 1.1 µM and inactive = higher.
quantity_kind: GI50

Solved cases (4 shown):
COc1cc(Br)cc2nc(-c3cccs3)oc12: > 100 µM (inactive)
CCOC(=O)NC(=S)c1ccc(O)c2ccccc12: 34.2 µM (inactive)
COCCOCCOCCC(=O)NC1CC2CCC1(C)C2(C)C (stereo not given): > 100 µM (inactive)
C=CCOC(=O)/C(=C\c1ccc(OC)c(OC)c1)c1ccc(OC)c(OC)c1: > 100 µM (inactive)

API: the following record is the query input.
Query: Please tell me: GI50 of `O=C(O)c1ccc(/C=N\N(CCO)C2=NCCN2)cc1` , system OVCAR-8?
Reply: > 100 µM (inactive)

====

Test system: NCI-H226
assay_comment: NCI tumour cell line growth inhibition, 48 h
Calls of active or inactive are those of the source. No stated cut-off is given here; in the data, active = GI50 up to about 1.1 µM and inactive = higher.
quantity_kind: GI50

Below, 3 compounds whose answers are already recorded.
COc1ccc2nccc(SCC(=O)O)c2c1: > 100 µM (inactive)
O=C(/C=C/c1ccsc1)c1cccs1: > 100 µM (inactive)
Cc1ccc(Oc2cc(C)ccc2P(=O)(O)O)cc1: > 100 µM (inactive)

# input for lookup
Query: Field request: GI50 | item: COC(=O)C(=O)C(C(=O)C(=O)Nc1nc2ccc(C)cc2s1)c1nc2ccc([N+](=O)[O-])cc2nc1O (stereo not drawn)
Reply: > 100 µM (inactive)

====

Reported GI50 values follow for various compounds
System: OVCAR-3
assay_comment: NCI tumour cell line growth inhibition, 48 h
Calls of active or inactive are those of the source. Rule as the data show it: active = GI50 up to about 1.1 µM and inactive = higher. Square brackets hold non-standard residues; d marks the D form. Peptide text beside a SMILES is read from it. * marks the point of attachment. Tyr(3-Br) = N[C@@H](Cc1ccc(O)c(Br)c1)C(=O)O; Boc = CC(C)(C)OC(=O)*

Recorded GI50, per entry:
O=C(/C=C/c1ccccc1Cl)NC1C=Nc2ccc([N+](=O)[O-])cc2NC1 (stereo not given): 42.3 µM (inactive)
O=c1oc2ncccc2n1Cc1ccc([N+](=O)[O-])cc1: > 100 µM (inactive)
COc1cc(-c2ccc(/N=N/c3ccc4c(S(=O)(=O)O)cc(S(=O)(=O)O)c(N)c4c3O)c(OC)c2)ccc1/N=N/c1ccc2c(S(=O)(=O)O)cc(S(=O)(=O)O)c(N)c2c1O: > 100 µM (inactive)
CC1(C)CC(C)(C)CC(O)(C2(O)CC(C)(C)CC(C)(C)C2)C1: > 100 µM (inactive)
Oc1ccccc1CNCc1nc2ccccc2[nH]1: 33.7 µM (inactive)
COC(=O)C1(O)c2ccccc2N=C2C(=O)c3ccccc3N21 (stereo not given) [METHYLISATOID]: 45.3 µM (inactive)
CCN(C(=N)C#N)c1ccccc1: > 100 µM (inactive)
COCOCC/C=C/C=O: > 100 µM (inactive)

Query: State the recorded GI50 for this entry: `COc1ccccc1/C=C1\SC(=S)N(/C=C2\C(=O)Oc3ccccc3C2=O)C1=O`
Reply: 19.8 µM (inactive)

Query: Follow-up item: `CC(C)(C)OC(=O)CN1CCNCCN(CC(=O)OC(C)(C)C)CC1`
Reply: > 100 µM (inactive)

Query: And `O=C(O)c1ccc(Nc2nc3ccccc3nc2C(=O)O)cc1` ?
Reply: > 100 µM (inactive)

Query: And for COC(=O)[C@H](Cc1ccc(O)c(Br)c1)NC(=O)[C@H](Cc1ccc(O)cc1)NC(=O)OC(C)(C)C (Boc-Tyr-[Tyr(3-Br)]-OMe) ?
Reply: 20.7 µM (inactive)

Query: Try the compound `CCOC(=O)N1C/C(=C\c2ccc(N(C)C)cc2)C(=O)/C(=C/c2ccc(N(C)C)cc2)C1`
Reply: > 100 µM (inactive)

Query: Follow-up item: Cc1oc2c(C)c3oc(=O)cc(C)c3cc2c1CN1C(=O)C2OCCOCCOCCOCCOCCO[C@H]2C1=O (stereo not given in full)
Reply: > 100 µM (inactive)

Query: Record: CCOC(=O)C(NCc1ccccc1)(NC(=O)c1ccccc1)C(F)(F)F (stereo not given)
Reply: 89.7 µM (inactive)
